target desc: Recombinant human his-tagged IGF R extracellular domain protein (human) (UniProt P08069)
assay info: SPR, Ab captured via anti-huIgG Fc, dissociation at pH 6
Entries and their koff
Lab book: enter the figure in s⁻¹, no units written.

Solved cases below.
>>> value("VRDN-02021 (antibody, V domains shown) VH: QVQLQESGPGLVKPSETLSLTCTVSGYSITGGYLWNWIRQPPGKGLEWIGYISYDGTNNYKPSLKDRVTISRDTSKNQFSLKLSSVTAADTAVYYCARHGRVFFDYWGQGTLVTVSS VL: DIVMTQSPLSLPVTPGEPASISCRSSQSIVHSNGNTYLQWYLQKPGQSPQLLIYKVSNRLYGVPDRFSGSGSGTDFTLKISRVEAEDVGVYYCFQGSHVPWTFGQGTKVEIK")
0.000137
>>> value("VRDN-02055 (antibody, V domains shown) VH: QVQLQESGPGLVKPSETLSLTCTVSGYSITGGYLWNWIRQPPGKGLEWIGYISYDGTNNYKPSLKDRVTISRDTSKNQFSLKLSSVTAADTAVYYCARYGRVFFDYWGQGTLVTVSS VL: DIVMTQSPLSLPVTPGEPASISCRSSQSIVHSNGNTYLQWYLQKPGQSPQLLIYKVSNRLYGVPDRFSGSGSGTDFTLKISRVEAEDVGVYYCFQGSHHPWTFGQGTKVEIK")
0.000101

Below: the item to evaluate.
[in] Which koff value is on record for VRDN-02026 (antibody, V domains shown) VH: QVQLQESGPGLVKPSETLSLTCTVSGYSITGGYLWNWIRQPPGKGLEWIGYISYDGTNNYKPSLKDRVTISRDTSKNQFSLKLSSVTAADTAVYYCARYGRVFHDYWGQGTLVTVSS VL: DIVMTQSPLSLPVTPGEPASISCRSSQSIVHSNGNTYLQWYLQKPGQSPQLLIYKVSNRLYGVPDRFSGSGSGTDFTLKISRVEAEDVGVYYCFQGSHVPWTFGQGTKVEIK ?
[out] 6.71e-05
